Listing of entries alongside the reported pEC50.
# target-or-test-system: μ-opioid receptor (Homo sapiens (Human))
# procedure-summary: μ-opioid receptor [35S]GTPγS functional assay, HEK-293 or CHO cells
# Assay type: biochemical
# assay-setup: HEK-293 or CHO cells; read-out: GTPγS μ EC50
pEC50: −log10 of the molar value.
readout-name: pEC50

{"cpd-smiles": "CN1CC[C@@]2(C)c3cc(O)ccc3C[C@@H]1[C@@H]2N(C)C(=O)CC(=O)Nc1ccc(F)cc1F", "recorded-number": 8.40}
{"cpd-smiles": "CN1CC[C@@]2(C)c3cc(O)ccc3C[C@@H]1[C@@H]2NCCCCNC(=O)OC(C)(C)C", "recorded-number": 6.91}
{"cpd-smiles": "CN1CC[C@@]2(C)c3cc(C#N)ccc3C[C@@H]1[C@@H]2NCCc1ccccc1", "recorded-number": 4.93}
{"cpd-smiles": "CN1CC[C@@]2(C)c3cc(C(N)=O)ccc3C[C@@H]1[C@@H]2N(C)C(=O)Cc1ccccc1", "recorded-number": 5.45}

====

# target-or-test-system: μ-opioid receptor (Homo sapiens (Human), UniProt P35372)
# procedure-summary: μ-opioid receptor [35S]GTPγS functional assay, HEK-293 or CHO cells
# Assay type: biochemical
# assay-setup: HEK-293 or CHO cells; relative to DAMGO
Label met when Emax is at or above 30%; anything below gets not met.

{"molecule": "CN1CC[C@@]2(C)c3cc(O)ccc3C[C@@H]1[C@@H]2NCCCCNC(=O)OC(C)(C)C", "category-label": "met"}
{"molecule": "CN1CC[C@@]2(C)c3cc(O)ccc3C[C@@H]1[C@H]2NCC1(O)CCCCC1", "category-label": "met"}
{"molecule": "CCN(CCc1ccc(S(C)(=O)=O)cc1)[C@H]1[C@H]2Cc3ccc(O)cc3[C@]1(C)CCN2C", "category-label": "met"}
{"molecule": "CN1CC[C@@]2(C)c3cc(O)ccc3C[C@@H]1[C@H]2N(C)C(=O)Cc1ccc(S(C)(=O)=O)cc1", "category-label": "not met"}
{"molecule": "CCCN(C(=O)Nc1ccc(C#N)cc1)[C@H]1[C@H]2Cc3ccc(O)cc3[C@]1(C)CCN2C", "category-label": "met"}
{"molecule": "CN1CC[C@@]2(C)c3cc(O)ccc3C[C@@H]1[C@H]2N(CCc1ccc(F)cc1)CC(=O)O", "category-label": "met"}
{"molecule": "CN1CC[C@@]2(C)c3cc(O)ccc3C[C@@H]1[C@@H]2N(C)C(=O)Nc1nc2ccccc2o1", "category-label": "met"}
{"molecule": "CCS(=O)(=O)N1CCC(CN(C)[C@H]2[C@H]3Cc4ccc(O)cc4[C@]2(C)CCN3C)CC1", "category-label": "met"}
{"molecule": "CN1CCC2(C)c3cc(O)ccc3C[C@@H]1C2NC(=O)CCC(=O)Nc1ccc(F)cc1F (stereo in doubt)", "category-label": "not met"}
{"molecule": "CN1CC[C@@]2(C)c3cc(O)ccc3C[C@@H]1[C@@H]2NC(=O)Nc1ccc(C#N)cc1", "category-label": "not met"}
{"molecule": "CN1CC[C@@]2(C)c3cc(O)ccc3C[C@@H]1[C@H]2NCCC1CCCCC1", "category-label": "met"}
{"molecule": "CN1CC[C@@]2(C)c3cc(C#N)ccc3C[C@@H]1[C@@H]2NCCc1ccccc1", "category-label": "not met"}
{"molecule": "CN1CC[C@@]2(C)c3cc(C(N)=O)ccc3C[C@@H]1[C@H]2N(C)C(=O)Nc1ccc(C#N)cc1", "category-label": "not met"}
{"molecule": "CN1CC[C@@]2(C)c3cc(O)ccc3C[C@@H]1[C@@H]2NCCC1CCCCC1", "category-label": "met"}
{"molecule": "CN1CC[C@@]2(C)c3cc(O)ccc3C[C@@H]1[C@@H]2N(C)CC1CCN(S(C)(=O)=O)CC1", "category-label": "met"}
{"molecule": "CN1CC[C@@]2(C)c3cc(C(N)=O)ccc3C[C@@H]1[C@@H]2N(C)C(=O)Nc1ccc(C#N)cc1", "category-label": "met"}
{"molecule": "CC(C)CS(=O)(=O)N1CCC(CN(C)C2[C@H]3Cc4ccc(O)cc4C2(C)CCN3C)CC1 (stereo in doubt)", "category-label": "not met"}
{"molecule": "CN1CC[C@@]2(C)c3cc(O)ccc3C[C@@H]1[C@@H]2N(C)CC1CCN(CC(C)(C)O)CC1", "category-label": "met"}
{"molecule": "CN1CC[C@@]2(C)c3cc(C#N)ccc3C[C@@H]1C2(O)O", "category-label": "not met"}
{"molecule": "CN1CC[C@@]2(C)c3cc(O)ccc3C[C@@H]1[C@H]2NC(=O)Nc1nc2cc(F)ccc2s1", "category-label": "not met"}
{"molecule": "CN1CC[C@@]2(C)c3cc(O)ccc3C[C@@H]1[C@@H]2N(C)CC1CCN(S(=O)(=O)C2CC2)CC1", "category-label": "met"}

Cited source for all entries: patent US9975854B2
